Provenance of the data: patent US10000438B2

- Assay Target: TRPA1 (Homo sapiens, UniProt O75762)
- Sequence (O75762 whole entry): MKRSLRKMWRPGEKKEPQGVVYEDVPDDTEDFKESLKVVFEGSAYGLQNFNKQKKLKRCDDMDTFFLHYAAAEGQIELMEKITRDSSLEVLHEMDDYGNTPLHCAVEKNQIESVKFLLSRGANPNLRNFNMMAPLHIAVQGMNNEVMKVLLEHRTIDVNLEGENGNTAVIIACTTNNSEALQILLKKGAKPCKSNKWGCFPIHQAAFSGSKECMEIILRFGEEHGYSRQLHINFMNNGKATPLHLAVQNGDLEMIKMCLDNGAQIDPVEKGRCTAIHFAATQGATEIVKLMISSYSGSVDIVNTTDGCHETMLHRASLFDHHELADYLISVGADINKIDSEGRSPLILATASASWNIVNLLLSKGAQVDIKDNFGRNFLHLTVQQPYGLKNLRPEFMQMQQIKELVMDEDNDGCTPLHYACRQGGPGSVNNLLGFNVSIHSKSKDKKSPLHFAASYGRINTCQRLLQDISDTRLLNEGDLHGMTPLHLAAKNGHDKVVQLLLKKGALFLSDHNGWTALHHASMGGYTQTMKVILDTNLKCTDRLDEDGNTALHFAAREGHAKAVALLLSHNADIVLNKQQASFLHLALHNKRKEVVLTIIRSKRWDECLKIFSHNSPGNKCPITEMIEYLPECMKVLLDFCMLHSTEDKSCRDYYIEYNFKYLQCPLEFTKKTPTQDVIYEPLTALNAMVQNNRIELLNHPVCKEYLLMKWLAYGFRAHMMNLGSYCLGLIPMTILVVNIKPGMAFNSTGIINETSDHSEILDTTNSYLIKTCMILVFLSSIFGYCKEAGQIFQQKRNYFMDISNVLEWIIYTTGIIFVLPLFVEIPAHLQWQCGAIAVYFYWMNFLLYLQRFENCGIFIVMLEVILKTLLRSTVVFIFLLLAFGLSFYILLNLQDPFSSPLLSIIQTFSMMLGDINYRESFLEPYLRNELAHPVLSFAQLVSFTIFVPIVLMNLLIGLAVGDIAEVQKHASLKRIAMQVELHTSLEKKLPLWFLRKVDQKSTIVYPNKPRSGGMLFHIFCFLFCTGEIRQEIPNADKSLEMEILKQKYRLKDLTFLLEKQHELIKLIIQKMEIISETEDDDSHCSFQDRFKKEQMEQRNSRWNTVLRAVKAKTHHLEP
- Test: Cell-based calcium assay (Fluo-4 fluorescence) in HEK293 cells expressing recombinant human TRPA1
- Set-up: expressed in transfected cells
- Run Conditions: agonist menthol at EC80 (35 μM final), read-out: Antagonistic activity (IC50) against Menthol
Quantity Kind: IC50 (nM)
Expressed in nM, but write only the number.

Return IC50 for the following compound: COc1cc(C(=O)OC2CC3CCC2(C)C3(C)C)ccc1OC(C)=O (stereo not shown)
3500

---

- Assay Target: TRPA1 (Homo sapiens, UniProt O75762)
- Test: Cell-based calcium assay (Fluo-4 fluorescence) in HEK293 cells expressing recombinant human TRPA1
- Design: expressed in transfected cells
- Run Conditions: agonist allyl isothiocyanate at EC80 (5 μM), read-out: Antagonistic activity (IC50) against Allyl isothiocyanate
Each record here notes measured pIC50.
As a rule, pIC50 stands for the negative log10 of the concentration, concentration in M.

Record excerpt, results attached:
COC(=O)c1ccc(/C=C(\C#N)C(=O)Nc2ccccc2F)cc1 | 5.92
CC(C)c1ccc2c(c1)CCC1[C@](C)(C(=O)O)CCC[C@]21C (stereo partly shown) | 4.59
COc1cc(C(=O)OC2CC3CCC2(C)C3(C)C)ccc1OC(C)=O (stereo not shown) | 5.60

Consider the additional compound presented here.
Return pIC50 for the following compound: Cc1cc(/C=C2\C(=N)N3N=C(CC(=O)N4CCCC4)SC3=NC2=O)c(C)n1-c1cccc(Cl)c1
5.46

---

- Assay Target: TRPA1 (Homo sapiens, UniProt O75762)
- Test: Cell-based calcium assay (Fluo-4 fluorescence) in HEK293 cells expressing recombinant human TRPA1
- Parameters: expressed in transfected cells
Quantity Kind: Agonistic efficacy at TRPA1 (EC80) (µM)
Expressed in µM, but write only the number.

Record excerpt, results attached:
CC1=C(/C=C/C(C)=C/C=C/C(C)=C/CO)C(C)(C)CCC1 [retinol, reference compound] | 150
CC1CCC(C(C)C)C(O)C1 (stereo not shown) [menthol, 2-isopropyl-5-methyl-cyclohexanol, reference compound] | 35

Return Agonistic efficacy at TRPA1 (EC80) for the following compound: C=CCN=C=S [allyl isothiocyanate, reference compound]
5

Return Agonistic efficacy at TRPA1 (EC80) for the following compound: CCCOC(=O)c1ccc(O)cc1 [propylparaben, reference compound]
80

---

- Assay Target: TRPA1 (Homo sapiens)
- Test: Cell-based calcium assay (Fluo-4 fluorescence) in HEK293 cells expressing recombinant human TRPA1
- Set-up: expressed in transfected cells
- Run Conditions: agonist retinol at EC80 (150 μM), read-out: Antagonistic activity (IC50) against Retinol
Quantity Kind: IC50 (µM)
Expressed in µM, but write only the number.

CC(C)c1ccc2c(c1)CCC1[C@](C)(C(=O)O)CCC[C@]21C (stereo partly shown) | 14
COC(=O)c1ccc(/C=C(\C#N)C(=O)Nc2ccccc2F)cc1 | 0.4
Cc1cc(/C=C2\C(=N)N3N=C(CC(=O)N4CCCC4)SC3=NC2=O)c(C)n1-c1cccc(Cl)c1 | 3.3

Return IC50 for the following compound: COc1cc(C(=O)OC2CC3CCC2(C)C3(C)C)ccc1OC(C)=O (stereo not shown)
3.4

---

- Assay Target: TRPA1 (Homo sapiens, UniProt O75762)
- Test: Cell-based calcium assay (Fluo-4 fluorescence) in HEK293 cells expressing recombinant human TRPA1
- Parameters: expressed in transfected cells
- Run Conditions: agonist propylparaben at EC80 (80 μM), read-out: Antagonistic activity (IC50) against Propylparaben
Quantity Kind: IC50 (µM)
Expressed in µM, but write only the number.

Record excerpt, results attached:
COc1cc(C(=O)OC2CC3CCC2(C)C3(C)C)ccc1OC(C)=O (stereo not shown) [Compound I.3] | 4.7
COC(=O)c1ccc(/C=C(\C#N)C(=O)Nc2ccccc2F)cc1 [Compound III.3] | 0.4
Cc1cc(/C=C2\C(=N)N3N=C(CC(=O)N4CCCC4)SC3=NC2=O)c(C)n1-c1cccc(Cl)c1 [Compound IV.3] | 4.3

Consider the additional molecule presented here.
Report IC50 on TRPA1 (Homo sapiens, UniProt O75762) for this entry: CC(C)c1ccc2c(c1)CCC1[C@](C)(C(=O)O)CCC[C@]21C (stereo partly shown) [Compound V.3]
26

---

- Assay Target: UniProt O75762
- Test: Cell-based calcium assay (Fluo-4 fluorescence) in HEK293 cells expressing recombinant human TRPA1
- Parameters: expressed in transfected cells
- Run Conditions: agonist menthol at EC80 (35 μM final), read-out: Antagonistic activity (IC50) against Menthol
Each record here notes measured IC50.
Enter the number, and then the unit.

Record excerpt, results attached:
Cc1cc(/C=C2\C(=N)N3N=C(CC(=O)N4CCCC4)SC3=NC2=O)c(C)n1-c1cccc(Cl)c1 [Compound IV.3] | 300 nM
COC(=O)c1ccc(/C=C(\C#N)C(=O)Nc2ccccc2F)cc1 [Compound III.3] | 100 nM

Return IC50 for the following molecule: CC(C)c1ccc2c(c1)CCC1[C@](C)(C(=O)O)CCC[C@]21C (stereo partly drawn) [Compound V.3]
4500 nM
